Recorded values, source the NIST ThermoML archive (doi:10.1016/j.jct.2007.03.009).

Experimental context: 298 K; 101.33 kPa; Liquid; masses and of the volumes of pellets.
Value kind: mass density (kg/m3)

compound="O=C1c2ccccc2C(=O)N1CCl [N-(chloromethyl)phthalimide]" numeric_value=1081
compound="O=C1c2ccccc2C(=O)N1CCCl [N-(2-chloroethyl)phthalimide]" numeric_value=1218
compound="O=C1c2ccccc2C(=O)N1CCBr [N-(2-bromoethyl)phthalimide]" numeric_value=1323
compound="O=C1c2ccccc2C(=O)N1CCCBr [N-(3-bromopropyl)phthalimide]" numeric_value=1051
